Measured values drawn from PubChem BioAssay for this set.

- System: Hepatitis C virus NS3 helicase
- experimental protocol: HCV NS3 helicase inhibitors, primary screen, biochemical, fluorescence polarization, NIH Clinical Collection (AID 743270)
- measurement parameters: NS3 helicase binding to Cy5-dT15 DNA, active compounds read high, concentration not given here
Here the recorded inhibition is given for each entry.
quantity: inhibition (%)

> print(dat)
                                   compound  value.observed
1  CC1(C)O[C@@H]2[C@@H](CO[C@@]3(COS(N)(=O)=O)OC(C)(C)O[C@@H]23)O1            -0.4
2  CC1=C(/C=C/C(C)=C/C=C/C(C)=C/C(=O)O)C(C)(C)CCC1            1.36
3  CC(COc1ccccc1)NC(C)C(O)c1ccc(O)cc1 (configuration not stated)           -4.09
4                CC(=O)Nc1nnc(S(N)(=O)=O)s1           -1.36
5  COC1=CC(=O)C[C@@H](C)[C@]12Oc1c(Cl)c(OC)cc(OC)c1C2=O           -4.09
6  CC(=O)S[C@@H]1CC2=CC(=O)CC[C@]2(C)[C@H]2CC[C@@]3(C)[C@@H](CC[C@@]34CCC(=O)O4)[C@H]12           -3.18
7  CCOC(=O)[C@H](CCc1ccccc1)N[C@H]1CCc2ccccc2N(CC(=O)O)C1=O           -1.98

* * *

Recorded nuclear beta-catenin stimulation values for a group of compounds are listed next.
- experimental protocol: stimulators of nuclear beta-catenin in C2C12, primary screen, imaging, WNT3A-conditioned medium, mouse C2C12, NPC library (AID 1117326); further: reference of the scale not given here
- measurement parameters: at 10 µM, active compounds read high
quantity: nuclear beta-catenin stimulation (%)

> print(dat)
                                    compound  value.observed
 1     CCCCCN=C(N)N/N=C/c1c[nH]c2ccc(OC)cc12            -2.1
 2        Cc1ccc(S(=O)(=O)NC(=O)NC2CCCC2)cc1             0.2
 3  CC[C@H](C)C(=O)O[C@H]1C[C@H](O)C=C2C=C[C@H](C)[C@H](CC[C@@H](O)C[C@@H](O)CC(=O)O)[C@H]21            -0.7
 4  Cc1nc(C2CCCCC2)c(-c2ccc(S(N)(=O)=O)c(F)c2)o1             2.5
 5  CCC(Cc1c(I)cc(I)c(O)c1I)C(=O)O (stereo not given)             0.6
 6  CC(C)C(=O)Nc1ccc([N+](=O)[O-])c(C(F)(F)F)c1             0.6
 7                    Nc1nc(N)c(-c2ccccc2)s1             0.4
 8                               N#CSCC(=O)O             0.3
 9  C/C(=C(\CCO)SS/C(CCO)=C(\C)N(C=O)Cc1cnc(C)nc1N)N(C=O)Cc1cnc(C)nc1N             0.2
10           c1ccc(CCNc2nc(-c3ccccc3)cs2)cc1             1.5
11  CCC(C(=O)O)c1ccc(N2Cc3ccccc3C2=O)cc1 (stereo not given)             0.8
12          CCCCCCNC(=O)n1cc(F)c(=O)[nH]c1=O            41.7
13        CCCN(CCC)S(=O)(=O)c1ccc(C(=O)O)cc1            -1.3
14                          COc1cc(O)cc(O)c1             1.6
15                   Clc1cccc(Cl)c1NC1=NCCN1             0.7

* * *

The molecules listed here are annotated with their GLP1 secretion stimulation.
- experimental protocol: glucagon-like peptide 1 release enhancers, primary assay, NCI-H716 cell line, NPC library (AID 1117341); further: reference of the scale not given here
- measurement parameters: NCI-H716 cells, at 10 µM, active compounds read high
quantity: GLP1 secretion stimulation (%)

molecule	quantity	unit of measure	value observed
O=C(O)c1ccccc1-c1ccc(C(F)(F)F)cc1	GLP1 secretion stimulation	%	5.5
COC(=O)c1cc(S(C)(=O)=O)ccc1OC	GLP1 secretion stimulation	%	-1.3
Cc1ccc2c(n1)Oc1ccc(C(C)C(=O)OCC(=O)N(C)C)cc1C2 (centres undefined)	GLP1 secretion stimulation	%	3.6
Fc1ccc([C@@H]2CCNC[C@H]2COc2ccc3c(c2)OCO3)cc1	GLP1 secretion stimulation	%	1.4
CC(C)(C)CC(=O)OCC(=O)[C@@]1(O)CC[C@H]2[C@@H]3CCC4=CC(=O)C=C[C@]4(C)[C@H]3[C@@H](O)C[C@@]21C	GLP1 secretion stimulation	%	3.3
CCN(CC)CCOC(=O)c1ccc(N)cc1	GLP1 secretion stimulation	%	-0.7
CN1CC(O)c2cc(N=NC(N)=O)c(O)cc21 (centres undefined)	GLP1 secretion stimulation	%	2.9
O=C1N=C(O)CN1/N=C/c1ccc(-c2ccc([N+](=O)[O-])cc2)o1	GLP1 secretion stimulation	%	1.9
O=C(O)CNC(=O)c1ccccc1	GLP1 secretion stimulation	%	4
CC(=O)Nc1ccc(/C=N/NC(N)=S)cc1	GLP1 secretion stimulation	%	4.3
CCCCCCCCCCCCCCCCCC(=O)OCC(O)CO (centres undefined)	GLP1 secretion stimulation	%	-0.3
Cc1cccc(Nc2ccncc2S(=O)(=O)NC(=O)NC(C)C)c1	GLP1 secretion stimulation	%	-2
NCC[C@H](O)C(=O)N[C@@H]1C[C@H](N)[C@@H](O[C@H]2O[C@H](CN)[C@@H](O)[C@H](O)[C@@H]2O)[C@H](O)[C@@H]1O[C@H]1O[C@H](CO)[C@@H](O)[C@H](N)[C@@H]1O	GLP1 secretion stimulation	%	0.5
CC[N+]1(CC)CCC(=C(c2ccccc2)c2ccccc2)C1C (centres undefined)	GLP1 secretion stimulation	%	3.8
CN(C)CCOc1ccccc1Cc1ccccc1	GLP1 secretion stimulation	%	-5.1
CCCCCCCC(=O)OCC(O)CO (centres undefined)	GLP1 secretion stimulation	%	-3.4
Cc1ccc2ccc(Cl)cc2n1	GLP1 secretion stimulation	%	-2.9
c1ccc(-c2nc[nH]c2-c2ccccc2)cc1	GLP1 secretion stimulation	%	3.1
CCOC(=O)c1cccc(N)c1	GLP1 secretion stimulation	%	-4.7

* * *

- experimental protocol: viability loss in pontine glioma line – cell-based, SU-DIPG-XXV, MIPE5.0, CellTiter-Glo, qHTS, dose response (AID 1347065);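 further: cells exposed to compound for 48 hours before ATP readout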
- measurement parameters: CellTiter-Glo ATP luminescence
Records with an inconclusive call do not appear. Activity calls are given as the source filed them. No cut-off is given here; in the data, nearly all actives have AC50 up to about 26 µM.
quantity: AC50

> print(dat)
                                   compound  quantity    value.observed
1           CNCCCC12CCC(c3ccccc31)c1ccccc12      AC50  23.5 µM (active)
2               c1ccc([C@H]2CN3CCSC3=N2)cc1      AC50          inactive
3                           N[C@@H]1CONC1=O      AC50          inactive
4  CC(C)Cc1ccc(C(C)C(=O)O)cc1 (configuration not stated)      AC50          inactive
5   N=C(N)c1ccc(OCCCCCOc2ccc(C(=N)N)cc2)cc1      AC50  11.8 µM (active)
6  O=C(c1ccccc1)c1ccc2n1CCC2C(=O)O (configuration not stated)      AC50          inactive
7  COc1cc2ncn(-c3cc(OCc4ccccc4S(C)(=O)=O)c(C#N)s3)c2cc1OC      AC50          inactive

* * *

- experimental protocol: stimulators of nuclear beta-catenin in C2C12, primary screen, imaging, WNT3A-conditioned medium, mouse C2C12, NPC library (AID 1117326); further: reference of the scale not given here
- measurement parameters: at 10 µM, active compounds read high
Active and inactive are the calls of the source. No stated cut-off is given here; in the data, active means nuclear beta-catenin stimulation mostly above about 4.2% (no sharp cut-off); inactive means mostly below about 10%.
quantity: nuclear beta-catenin stimulation

> print(dat)
                                   molecule    value.observed
1                  c1ccc(CNCCNCc2ccccc2)cc1     4% (inactive)
2  C[C@@H](O)[C@H]1C(=O)N2C(C(=O)[O-])=C(SC3Cn4cnc[n+]4C3)[C@H](C)[C@H]12 (stereo not given in full)  -0.3% (inactive)
3        NS(=O)(=O)c1ccc(N2CCCCS2(=O)=O)cc1   0.5% (inactive)
4  CC12C=CC(=O)C=C1CCC1C2C(O)CC2(C)C1CCC2(O)C(=O)COP(=O)(O)O (stereo not given)   1.1% (inactive)
5  CCC(=C(CC)c1ccc(OP(=O)(O)O)cc1)c1ccc(OP(=O)(O)O)cc1  -1.3% (inactive)
